- Test details: Induction of heme alkylation of Fe(II) heme assessed as loss of heme at 10 uM in presence of 50% ACN-H2O with excess sodium dithionite under argon at 20 degC by spectrophotometry
Property name: inhibition
I'd appreciate it if you wrote the number followed by its unit.

Any idea what inhibition was measured for Clc1ccc([C@H]2CC[C@]3(CC2)OO[C@]2(O3)C3CC4CC(C3)CC2C4)cc1 ?
84%

Request the reported inhibition associated with OC[C@H]1CC[C@@]2(CC1)OO[C@@]1(O2)C2CC3CC(C2)CC1C3
83%

Which inhibition reading was recorded for the molecule c1ccc([C@H]2CC[C@]3(CC2)OO[C@]2(O3)C3CC4CC(C3)CC2C4)cc1 ?
77%

Report inhibition for CC1(C)CC[C@]2(CC1)OO[C@]1(O2)C2CC3CC(C2)CC1C3 please.
82%

Quick one: inhibition for CCC[C@H]1CC[C@]2(CC1)OO[C@]1(O2)C2CC3CC(C2)CC1C3 ?
85%

State the recorded inhibition for this entry: CC(C)(C)[C@H]1CC[C@]2(CC1)OO[C@]1(O2)C2CC3CC(C2)CC1C3
34%

Can you look up the measured inhibition of C1CCC2(CC1)OOC1(O2)C2CC3CC(C2)CC1C3 (stereo not drawn) for me?
86%

If you can, please state the reported inhibition value of C[C@@]1(c2ccccc2)OOC2(O1)C1CC3CC(C1)CC2C3 (stereo partly drawn) .
67%
